# assay_target: T1, cynomolgus ROR1 on CHO-K1-cynoROR1 cells (cynomolgus monkey, UniProt A0A2K5WTX7 30-937)
# T1 construct: whole, on cells
# protocol_text: flow cytometry, CHO-K1-cynoROR1 cells
observable: Max
Respond using a number only.

The cases that follow already have their Max on record.
{"binder": "PR005350 (antibody, human IgG1, V domains shown, HCAb (heavy chain-only, human IgG1 Fc), no light chain) VH: EVQLVESGGGLVKPGGSLRLSCAASGFTLSDSQMSWIRQAPGKGVEWVSYISSSGNTIYYGDSVKGRFTISRDNAKNSLFLQMNSLRAEDTAVYYCARVPPSSSNWYEDFDIWGQGTLVTVSS", "Max": 14400}
{"binder": "PR005348 (antibody, human IgG1, V domains shown, HCAb (heavy chain-only, human IgG1 Fc), no light chain) VH: EVQLVESGGGLVKPGGSLRLSCAASGFTFSDYYMSWIRQTPGKGLEWVSYISRSGSTKYYADSVKGRFTISRDNAKNSLYLQMNSLRAEDTAVYYCARDAPSSNSDWVSLHFDHWGQGTLVTVSS", "Max": 28000}
{"binder": "PR005341 (antibody, human IgG1, V domains shown, HCAb (heavy chain-only, human IgG1 Fc), no light chain) VH: EVQLVESGGGLVKPGGSLRLSCVASGFTFSDYYMSWIRQAPGKGLEWISYISSSGSSIYYAESVKGRFTISRDNAKNSLYLQMNRLRAEDTALYYCARTPPSSDNWYEDFDYWGQGALVTVSS", "Max": 32900}

# binder PR005344 (antibody, human IgG1, V domains shown, HCAb (heavy chain-only, human IgG1 Fc), no light chain) VH: EVQLVESGGGLVKPGGSLRLSCAASGFTFSDYYMSWIRQAPGKGLEWISYISNSSSSISYANSVKGRFTVSRDNAKNSLYLQMNSLRAEDTALYYCARSPRGAFYEDFDYWGQGTLVTVSS ; its Max = 30700

# binder PR005343 (antibody, human IgG1, V domains shown, HCAb (heavy chain-only, human IgG1 Fc), no light chain) VH: EVQLVESGGGLVKPGGSLRLSCVASGFTFSDYYMSWIRQAPGKGMEWISYISSSGSTKNYANSVKGRFTISRDNAKNSLYLQMNSLRAEDTAAYYCARVPPYNASWYEDFDYWGQGTLVTVSS ; its Max = 34100

# binder PR005337 (antibody, human IgG1, V domains shown, HCAb (heavy chain-only, human IgG1 Fc), no light chain) VH: EVQLVESGGGLVKPGGSLRLSCAASGFIFSDYYMSWIRQAPGKGLEWVSYISSSGSTIHYADSVKGRFTVSRDNAKNSLYLQMNSLRTEDTAVYYCARDPPTSNSDWVSLHFDHWGQGTLVTVSS ; its Max = 31100
